TEST: JC-1 mitochondrial potential readout, lung cancer cells – cell-based, A549, JC-1 fluorescence, basal, 24 h, 100 nL, profiling panel (AID 1138);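 also: A549 lung adenocarcinoma cells under basal conditions with no added stimulus; test concentration not given here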
MEASUREMENT CONTEXT: higher = more signal
Collected z-score values appear next to each entry.
PARAMETER MEASURED: z-score

# COMPOUND, REPORTED VALUE
rows = [
    ("C=C(CCCC)/C(=C/C[C@H](OC(C)=O)c1ccc(OCCO)cc1)c1cnc2ccccc2c1", 0.649),
    ("C[N+](C)(C)CCCCCCNC(=O)[C@H]1C[C@H]2C(=O)N[C@@H](Cc3ccccc3)C(=O)N2[C@H]1c1cccc(OCCO)c1", -0.585),
    ("O=C1O[C@H](c2ccccc2)[C@H](c2ccccc2)N2[C@H]1[C@@H](C(=O)N1CCN(c3ncccn3)CC1)[C@]1(C(=O)Nc3ccc(C#CC4=CCCCC4)cc31)[C@H]2c1ccccc1OCCO", -1.01),
    ("C#CCNCc1ccccc1", 0.588),
    ("COc1cc2c(cc1O)C(c1cccs1)N(Cc1ccc([N+](=O)[O-])o1)CC2 (centres undefined)", 2.32),
    ("COc1ccc([C@H]2C[C@H]3C(I)=C[C@@H]2C(=O)[C@]32CO2)cc1", 1.1),
    ("[N-]=[N+]=NCc1ccccc1[C@@H]1OC(c2ccc(OCCCO)cc2)=N[C@]1(CCS(=O)(=O)c1ccccc1)C(N)=O", -0.528),
    ("[N-]=[N+]=Nc1ccccc1[C@H]1OC(c2ccc(OCCCO)cc2)=N[C@@]1(Cc1ccccc1)C(=O)N1CCOCC1", -0.254),
    ("COCC(=C=CC[C@H](O)c1cccc(OCCO)c1)C[C@H](O)c1cc(Cl)cc(Cl)c1O", 0.324),
]
